# Test system: throat (Adam's apple, jugular notch, upper chest)
# Assay type: in vivo, human
# Measurement conditions: duration of cooling after swallowing Shaped-Gel
Recorded metric: Duraton

State the recorded Duraton for this entry: `CCOC(=O)CNC(=O)[C@@H]1C[C@H](C)CC[C@H]1C(C)C` 25 min

Try this molecule too: `CC(C)OC(=O)CNC(=O)[C@@H]1C[C@H](C)CC[C@H]1C(C)C` 35 min

Try this molecule too: CC1CCC(C(C)C)C(C(=O)OCC(O)CO)C1 (stereo not drawn) 25 min

Try this molecule too: `CCCCCCCCCP(=O)(C(C)C)C(C)C` ~60 min

Try this molecule too: CCCCCCP(=O)(C(C)CC)C(C)CC (stereo not drawn) [DAPA-2-6, 1-Di(sec-butyl)-phosphinoyl-hexane] 30 min

Try this molecule too: `COc1ccc(NC(=O)[C@@H]2C[C@H](C)CC[C@H]2C(C)C)cc1` 20 min
